Target: UniProt P39900
Sequence (P39900 106-470): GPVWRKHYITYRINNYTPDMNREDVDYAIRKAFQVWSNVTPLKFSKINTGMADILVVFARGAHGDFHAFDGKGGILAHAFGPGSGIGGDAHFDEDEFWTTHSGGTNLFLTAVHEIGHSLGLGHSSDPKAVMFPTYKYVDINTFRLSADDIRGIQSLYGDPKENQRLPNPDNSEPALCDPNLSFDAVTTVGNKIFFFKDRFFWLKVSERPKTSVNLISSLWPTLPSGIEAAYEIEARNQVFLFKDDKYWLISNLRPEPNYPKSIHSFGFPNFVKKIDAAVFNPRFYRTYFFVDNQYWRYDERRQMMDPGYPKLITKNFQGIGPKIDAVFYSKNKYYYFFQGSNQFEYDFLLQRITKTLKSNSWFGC
Test: In vitro inhibition of MMP-12 proteolysis of fluorigenic peptide FP-1
Type: biochemical
Conditions: FP-1 substrate 10 μM, 20 minutes at room temperature
Metric name: IC50 (µM)

> print(dat)
                                   compound  metric.name  numeric.value
1  CC(=O)c1ccc(-c2ccc(-c3cc(C(=O)N[C@H](CC(=O)O)c4ccccc4)sc3F)cc2)cc1 [Example 3]         IC50          0.024

(I) CC(=O)c1ccc(-c2ccc(-c3cc(C(=O)NC[C@H]4CC[C@H](C(=O)O)CC4)sc3F)cc2)cc1 [Example 2]
(II) O=C(NC[C@H]1CC[C@H](C(=O)O)CC1)c1cc(-c2ccc(OC(F)(F)F)cc2)c(F)s1 [Example 1]
Field: lower IC50 | Options: I / II # respond with the chosen item's label
I
(I: 0.007 µM, II: 0.14 µM)

Hello, the source for this data is patent US20050014817A1, in case you need it.
